Parameter: IL-2 production, SEB-dependent PBMC stimulation test, 0.08 ug/ml, N = 2. Scope: all listed entries.
target.entity: T1, human LAG-3 on cells (HEK293-hLAG-3 stable cell line) (human, UniProt P18627 23-525)
T1 sequence: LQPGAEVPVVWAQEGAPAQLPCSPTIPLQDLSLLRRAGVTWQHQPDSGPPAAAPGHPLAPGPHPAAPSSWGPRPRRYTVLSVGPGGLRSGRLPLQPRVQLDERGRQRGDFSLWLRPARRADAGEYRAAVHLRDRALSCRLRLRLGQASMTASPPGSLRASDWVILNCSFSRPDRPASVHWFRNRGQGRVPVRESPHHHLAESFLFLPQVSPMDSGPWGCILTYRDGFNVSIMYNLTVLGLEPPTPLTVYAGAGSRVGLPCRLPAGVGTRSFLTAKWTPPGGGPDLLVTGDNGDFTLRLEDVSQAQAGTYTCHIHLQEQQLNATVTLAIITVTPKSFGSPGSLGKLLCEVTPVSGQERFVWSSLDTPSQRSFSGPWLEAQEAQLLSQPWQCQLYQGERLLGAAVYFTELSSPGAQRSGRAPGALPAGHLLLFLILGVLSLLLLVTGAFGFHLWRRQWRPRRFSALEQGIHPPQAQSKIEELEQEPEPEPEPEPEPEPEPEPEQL
procedure.details: cell-based or functional assay
Numbers only; they are read as pg/mL.

409B11E12 mouse-human chimeric antibody (antibody, V domains shown, also called mAb104-409B11E12) VH: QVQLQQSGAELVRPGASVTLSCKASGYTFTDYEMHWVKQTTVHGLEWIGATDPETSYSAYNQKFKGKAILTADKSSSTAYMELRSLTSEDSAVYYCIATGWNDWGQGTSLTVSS VL: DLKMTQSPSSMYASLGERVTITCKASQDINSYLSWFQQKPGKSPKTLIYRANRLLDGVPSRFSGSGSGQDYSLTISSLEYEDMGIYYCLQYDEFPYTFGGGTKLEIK; 1530
556F6B8 mouse-human chimeric antibody (antibody, V domains shown, also called mAb123-556F6B8; 556F8B8) VH: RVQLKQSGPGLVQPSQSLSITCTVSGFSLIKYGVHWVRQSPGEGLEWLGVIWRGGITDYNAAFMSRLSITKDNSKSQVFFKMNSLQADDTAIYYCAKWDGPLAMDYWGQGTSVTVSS VL: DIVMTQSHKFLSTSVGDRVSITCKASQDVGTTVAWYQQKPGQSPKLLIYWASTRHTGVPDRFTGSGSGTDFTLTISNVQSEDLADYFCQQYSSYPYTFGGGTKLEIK; 1980

Sample 105F1E10 mouse-human chimeric antibody (antibody, V domains shown, also called mAb009-105F1E10) VH: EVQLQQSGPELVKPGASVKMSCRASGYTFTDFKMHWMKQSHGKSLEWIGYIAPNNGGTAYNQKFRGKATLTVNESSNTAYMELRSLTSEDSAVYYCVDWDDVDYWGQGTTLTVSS VL: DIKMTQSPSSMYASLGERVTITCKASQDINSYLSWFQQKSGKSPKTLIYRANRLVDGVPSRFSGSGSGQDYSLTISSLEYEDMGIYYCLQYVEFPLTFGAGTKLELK ; IL-2 production, SEB-dependent PBMC stimulation test, 0.08 ug/ml, N = 2 observed: 1770
